Let's look at some compounds and their measured melting point.

Look over these answered cases.
Quick one: melting point of CCOc1ccc(/C=C/c2nc3c([nH]2)c(=O)n(CC)c(=O)n3CC)cc1 ?
297 to 299 °C

Quick one: melting point of CCCCOc1cc(C(=O)N(C)C)cc(S(N)(=O)=O)c1Cc1ccccc1 ?
199 to 201 °C

Quick one: melting point of C[C@@H](NC(=O)c1ccc[nH]1)C(=O)N[C@H]1CC(=O)O[C@@H]1OCc1ccccc1 ?
109 to 112 °C

Quick one: melting point of CNc1nc(Cl)nc2c(Cl)ncnc12 ?
196 to 197 °C

Quick one: melting point of O=C(O)c1cn(C2CC2)c2c(F)c(N3CCC(O)C3)c(F)cc2c1=O (stereo unspecified) ?
276 to 278 °C

More entries:
Quick one: melting point of CSc1cc(Cl)ccc1C(=O)CC#N ?
139 to 141 °C

Quick one: melting point of COC(=O)c1c2c(c3cc(OC)c(OC)c(OC)c3c1-c1cc(OC)c(OC)c(OC)c1)OCOC2=O ?
165 to 167 °C

Quick one: melting point of OCCOCC(O)c1ccc(OCc2ccccc2)cc1 (stereo unspecified) ?
116 to 117 °C

Quick one: melting point of N#Cc1cc(F)cc(-c2cc([N+](=O)[O-])c3c(c2)C2(CCCCC2)C(=O)N3)c1 ?
196 °C

Quick one: melting point of O=C(Nc1ccc(C(F)(F)F)cc1)Nc1ccc2c(c1)COC2=O ?
297 to 307 °C

Quick one: melting point of COc1cccc(P(=O)(c2ccc(C)cc2)c2ccc(C)cc2)c1I ?
146 to 148 °C

Quick one: melting point of COC(=O)c1c(Cl)cc(Cl)cc1NC(=O)CSc1ccccc1OC ?
93 to 94 °C

Quick one: melting point of Cc1ccc(C)c(OCCCC(C)(C)C(=O)Nc2cccc(C3=NCCCO3)c2)c1 ?
114 to 115 °C

Quick one: melting point of CCC(=O)NCC1CC1c1cccc2nn(CC)cc12 (stereo unspecified) ?
114 to 115 °C

Quick one: melting point of COc1cc(C=CC(=O)C=Cc2ccc(OC(C)=O)c(OC)c2)ccc1OC(C)=O ?
150 °C

Quick one: melting point of O=C(O)CCCNc1nc2ccccc2c(=O)o1 ?
147 to 148 °C

Quick one: melting point of CC(=O)OCC(=O)C1(O)CCC2C3CCC4=CC(=O)C=CC4(C)C3CCC21C (stereo unspecified) ?
214 °C

Quick one: melting point of Cc1nnc2n1-c1ccc(C#CCN3C(=O)C(=O)c4ccccc43)cc1C(c1ccccc1Cl)=NC2 ?
210 to 212 °C

Quick one: melting point of CCOC(=O)c1cnc2ccc(C)cc2c1O ?
> 260 °C

Quick one: melting point of COc1cc2c(c(OC(C)=O)c1)C1CCC3(C)C(=O)C(O)CC3C1CC2 (stereo unspecified) ?
228 to 231 °C

Quick one: melting point of COc1cc(O[C@@H](C)C(=O)O)c(Cl)cc1Cl ?
114 to 115 °C

----------
PARAMETER_MEASURED: melting point

Quick one: melting point of COC(=O)c1cc(N)cc(-n2cccc2)c1 ?
116 to 118 °C

Quick one: melting point of CC(C)(C)OC(=O)N1CCC[C@H](O)[C@@H]1c1ccc(Cl)cc1 (relative stereo) ?
95 to 96 °C

Quick one: melting point of CCC(COC)Nc1nc(C)nc2c1nnn2-c1ccc(C(C)C)cc1Br (stereo not given) ?
132 to 134 °C

Quick one: melting point of CN(c1cc(OCCCS(C)(=O)=O)cc2cc(C3=NCC(CN4CCS(=O)CC4)S3)[nH]c12)S(=O)(=O)c1ccccn1 (stereo not given) ?
107 to 110 °C

Quick one: melting point of CC(=O)C1CCC2=C(C1)C1OC2c2cc3ccccc3cc21 (stereo not given) ?
158 to 160 °C

Quick one: melting point of CS(=O)CCC1=NS(=O)(=O)NC(N)=N1 (stereo not given) ?
180 to 182 °C

Quick one: melting point of Cc1c(Nc2c(C#N)cncc2-c2cc3cc(CN4CCN(C)CC4)ccc3o2)ccc2[nH]ccc12 ?
162 to 165 °C

Quick one: melting point of CCOC(=O)c1cn(C2CC2)c2cc(Cl)c(F)c(Cl)c2c1=O ?
227 to 229 °C

Quick one: melting point of CCCSc1sc(C(=O)OCC)c2c1-c1nc(-c3ccccc3)sc1CC2 ?
125 to 126 °C

# evaluate next
Quick one: melting point of O=c1c(-c2cccc(F)c2)c(CNc2ncnc3[nH]cnc23)oc2ccc(F)cc12 ?
229 to 232 °C

----------
Let's look at some compounds and their measured melting point.

Quick one: melting point of CN(CC1CCCCC1)C(=O)c1ccc2nonc2c1 ?
71 to 72 °C

Quick one: melting point of NS(=O)(=O)c1cc(C(=O)OC[C@@H]2CCCN2N=O)c(NCc2ccco2)cc1Cl ?
79 to 81 °C

Quick one: melting point of COCCOC(=O)N1c2cc(Cl)ccc2NC(=O)[C@@H]1C ?
93 to 94 °C

More entries:
Quick one: melting point of C=C(C)COc1ccc2c(C)cc(=O)oc2c1C(=O)C=Cc1cccc(OC)c1 ?
85 to 87 °C

Quick one: melting point of CCOC(=O)C(C(=O)OCC)C(=O)c1ccc(C(F)(F)F)cc1[N+](=O)[O-] ?
59 to 60 °C

Quick one: melting point of CC(=Cc1ccccc1)C(C#N)=NOS(C)(=O)=O ?
105 to 107 °C

Quick one: melting point of Cc1noc(NS(=O)(=O)c2cccc(-c3ccccc3)c2)c1Br ?
78 to 82 °C

Quick one: melting point of CCO[C@@H](Cc1ccc(-c2nc([N+](=O)[O-])nn2C)cc1)C(=O)OC ?
119 °C

Quick one: melting point of CC(=O)N1CCN(c2ccc(-c3cnc4[nH]cc(C(=O)C5(C)CCCCC5)c4n3)cc2)CC1 ?
278 to 285 °C

----------
PARAMETER_MEASURED: melting point

Look over these answered cases.
Quick one: melting point of CON(C)C(=O)c1cc(Br)cc([N+](=O)[O-])c1N ?
129 °C

Quick one: melting point of O=C1c2cccc(O)c2CN1C1CCN(CCC(c2ccccc2)c2ccccc2)CC1 ?
114 to 118 °C

Quick one: melting point of CON=Cc1cc(-n2c(=O)cc(C(F)(F)F)[nH]c2=O)c(F)cc1Cl ?
176 to 177 °C

More entries:
Quick one: melting point of CCCc1c(OCCCOc2cccc3c2CCCC3)ccc2c1OC(CCCC(=O)O)(CCCC(=O)O)CC2=O ?
138 °C

Quick one: melting point of CN1CCN(c2cc(NC(=O)c3ccc(-c4ccncc4)cc3)ccc2Cl)CC1 ?
218 to 219 °C

Quick one: melting point of CCOC(=O)N1CC=C(c2cc(F)c(C#N)cc2F)CC1 ?
85 to 87 °C

Quick one: melting point of Cc1ccc(-c2nc(Oc3ccccc3)nc(-c3ccc(C)cc3C)n2)c(C)c1 ?
96 to 98 °C

Quick one: melting point of CCCn1nnn(-c2cc(OCC(=O)O)c(Cl)cc2Cl)c1=O ?
134 to 136 °C

Quick one: melting point of O=c1ncc(Cl)cn1COCc1ccccc1 ?
125 °C

Quick one: melting point of COC(=O)c1[nH]c(-c2ccccc2)c(-c2ccccc2)c1C(=O)OC ?
185 to 187 °C

----------
PARAMETER_MEASURED: melting point (°C)

Quick one: melting point of CCOC(=O)C1=C(C)Nc2nc(N3CCOCC3)nc(N3CCOCC3)c2C1c1ccsc1 (centres undefined) ?
208

a: COC1=C(C(=O)c2ccc(C)cc2)C(c2ccc(C(C)C)cc2)N(c2ncc(S(=O)(=O)c3ccc([N+](=O)[O-])cc3)s2)C1=O (centres undefined)
b: CCCCN1C=CC(N2CCC(F)(c3ccccc3)C(Cl)C2=O)=CC1 (centres undefined)
Pick one: a or b . Which has the bigger melting point number? Selection: enter the item's label.
a
(a: 237 °C, b: 137 °C)

----------
PARAMETER_MEASURED: melting point

Look over these answered cases.
Quick one: melting point of Clc1ccc(NC2=Nc3ccccc3CS2)cc1Cl ?
207 to 208 °C

Quick one: melting point of OCC(O)COC(c1ccccc1)(c1ccccc1)c1ccccc1 (stereo not given) ?
108 to 110 °C

Quick one: melting point of OC(Cn1cncn1)(OCCOc1ccc(Cl)cc1Cl)c1ccc(Cl)cc1Cl (stereo not given) ?
88 to 90 °C

Quick one: melting point of OCc1cnoc1-c1ccc(Cl)c(F)c1 ?
87 to 88 °C

Quick one: melting point of O=Cc1ccccc1C=C1c2ccccc2CCc2ccccc21 ?
199 °C

More entries:
Quick one: melting point of Cn1cc(-c2cc(-c3cnc4[nH]ccc4c3)ccn2)n(-c2cccc(C#N)c2)c1=O ?
265 °C

Quick one: melting point of COc1ccc(OC)c2c(Nc3cccc(N(C)C)c3)c(C#N)cnc12 ?
103 to 105 °C

Quick one: melting point of CCCCCOC(=O)Cc1nc(-c2ccc(F)cc2)oc1-c1ccsc1 ?
78 to 80 °C

Measured values drawn from a melting point compilation (Tetko et al.; mined from patent text by program, amines drawn as free bases though some values may be those of a salt) for this set.
